# Test system: L 1210/cis-DDP cell line
# appliedConditions: read-out: IC50 (Concentration producing 50% of inhibition); L1210/cis-DDP; Mean ±SD
measuredMetric: IC50 (µM)
Answer format: numeric, µM implied, no suffix.

// lookup IC50 for N.N.[Cl][Pt][Cl] [cis-DDP, cis-platinum, reference compound]
9.6
